Give measured Concentration for each item. Keep answers brief.
Tested on: Streptococcus mutans
Test: Compound is evaluated for minimal bactericidal concentration against plaque formation for Streptococcus mutans
Type: functional, organism-based
Answers are plain numbers, in mM.

The cases that follow already have their Concentration on record.
| Compound | Result units | Concentration |
| --- | --- | --- |
| Br.Br.CCCCCCCCCN=c1ccn(CCCCCCCCCn2ccc(=NCCCCCCCCC)cc2)cc1 | mM | 1.37 |
| Br.Br.CCCCCCCCCN=c1ccn(CCCCCCCn2ccc(=NCCCCCCCCC)cc2)cc1 | mM | 2.86 |

Give Concentration for all compounds that follow.
1. N=C(NCCCCCCNC(=N)NC(=N)Nc1ccc(Cl)cc1)NC(=N)Nc1ccc(Cl)cc1
2. CCCCCCCCN=c1ccn(CCCCCCCCCCn2ccc(=NCCCCCCCC)cc2)cc1.Cl.Cl [OCTENIDINE HYDROCHLORIDE]
3. Br.Br.CCCCCCCCCN=c1ccn(CCCCCCCCn2ccc(=NCCCCCCCCC)cc2)cc1

Ans:
1: 3.2; 2: 3.2; 3: 2.5

Attribution: ChEMBL document CHEMBL1122519
